The measured values listed here are drawn from patent US10905683B2.

Assay: Phase 1 Part 2, multiple ascending dose pharmacokinetics (7 days, q8h)
Format: in vivo, human
Details: human, plasma, oral, 200 mg, Day 1, 200 mg q 8 h, Median
Excerpt: Part 2 of the study evaluated the safety, tolerability, PK, and PD of multiple ascending doses of the compound of Example 1. […]
measurement.kind: Tmax (h)
The figure you give is taken to be in h; do not add the unit.

What value of measured Tmax is listed for C=Cc1cc(C(=O)Nc2ccc(C(=N)N)cc2)c(-c2ccc(C(=O)NCC3CC3)nc2C(=O)O)cc1OC ? 2

====

assay: Phase 1 Part 1, single ascending oral dose pharmacokinetics and food effect; format: in vivo, human; details: human, plasma, po, 50 mg, 50 mg single oral dose, fasting; GM
measurement.kind: AUC(0-t)
Give your result as the value with the unit written after it.

Sample C=Cc1cc(C(=O)Nc2ccc(C(=N)N)cc2)c(-c2ccc(C(=O)NCC3CC3)nc2C(=O)O)cc1OC [Example 1] — what was its AUC(0-t)? 89.6 ng·h/mL

====

experiment: Phase 1 Part 1, single ascending oral dose pharmacokinetics and food effect; type: in vivo, human; conditions: human, plasma, po, 125 mg, 125 mg single oral dose, fasting; GM
measurement.kind: Cmax (ng/mL)
Numeric answer only, unit ng/mL assumed.

Dear colleague, I am looking for the recorded Cmax of the following molecule: C=Cc1cc(C(=O)Nc2ccc(C(=N)N)cc2)c(-c2ccc(C(=O)NCC3CC3)nc2C(=O)O)cc1OC 54

====

assay: Phase 1 Part 1, single ascending oral dose pharmacokinetics and food effect; format: in vivo, human; settings: human, plasma, po, 500 mg, 500 mg single oral dose, FASTED; GM
measurement.kind: AUC(0-t)
Form entry: enter the amount, then its unit.

For C=Cc1cc(C(=O)Nc2ccc(C(=N)N)cc2)c(-c2ccc(C(=O)NCC3CC3)nc2C(=O)O)cc1OC , what is its reported AUC(0-t)? 760 ng·h/mL

====

experiment: Phase 1 Part 2, multiple ascending dose pharmacokinetics (7 days, q8h); assay type: in vivo, human; conditions: human, plasma, oral, 800 mg, Day 7, 800 mg q 8 h, Median; read-out: t1/2 (converted)
measurement.kind: half-life (h)
# number only, unit h dropped from output

Find the recorded half-life belonging to C=Cc1cc(C(=O)Nc2ccc(C(=N)N)cc2)c(-c2ccc(C(=O)NCC3CC3)nc2C(=O)O)cc1OC and report it. 8.03

====

assay: Phase 1 Part 2, multiple ascending dose pharmacokinetics (7 days, q8h); assay type: in vivo, human; conditions: human, plasma, oral, 100 mg, Day 1, 100 mg q 8 h, Median
measurement.kind: Cmax

Quick one: Cmax of C=Cc1cc(C(=O)Nc2ccc(C(=N)N)cc2)c(-c2ccc(C(=O)NCC3CC3)nc2C(=O)O)cc1OC ? 49.4 ng/mL

====

test: Caco-2 bi-directional permeability, absence and presence of P-gp inhibitor verapamil; assay type: in vitro ADME; conditions: human; Caco-2, P-gp inhibitor absent
measurement.kind: efflux ratio
Answer with a bare number; do not write a unit.

Quick one: efflux ratio for C=Cc1cc(C(=O)Nc2ccc(C(=N)N)cc2)c(-c2ccc(C(=O)NCC3CC3)nc2C(=O)O)cc1OC ? 0.9

====

assay: Caco-2 bi-directional permeability, absence and presence of P-gp inhibitor verapamil; format: in vitro ADME; conditions: human; Caco-2, P-gp inhibitor absent
measurement.kind: Papp B→A (×10⁻⁶ cm/s)
Report as a plain number; the unit ×10⁻⁶ cm/s is understood.

Fill in the blank: the reported Papp B→A of C=Cc1cc(C(=O)Nc2ccc(C(=N)N)cc2)c(-c2ccc(C(=O)NCC3CC3)nc2C(=O)O)cc1OC is ____. 0.5

====

test: Phase 1 Part 1, single ascending oral dose pharmacokinetics and food effect; type: in vivo, human; conditions: human, plasma, po, 50 mg, 50 mg single oral dose, fasting; GM; read-out: t1/2 (converted)
measurement.kind: half-life (h)
Number only, in h; omit the unit.

half-life for C=Cc1cc(C(=O)Nc2ccc(C(=N)N)cc2)c(-c2ccc(C(=O)NCC3CC3)nc2C(=O)O)cc1OC ? 2.98

====

assay: Phase 1 Part 2, multiple ascending dose pharmacokinetics (7 days, q8h); type: in vivo, human; conditions: human, plasma, oral, 400 mg, Day 7, 400 mg q 8 h, GM; read-out: Ctau
measurement.kind: concentration at 8 h (ng/mL)
Unit ng/mL implied. Number only.

Query: concentration at 8 h; subject: C=Cc1cc(C(=O)Nc2ccc(C(=N)N)cc2)c(-c2ccc(C(=O)NCC3CC3)nc2C(=O)O)cc1OC 17.4

====

assay: Further solubility studies in solvents, mixtures and surfactants; type: physicochemical; details: 2.5% SLS in 97.5% PEG600, organic solvent or mixture, thermodynamic from solid, 2.5% SLS in 97.5% PEG600; read-out: Example 1 Solubility After 24 hrs
measurement.kind: solubility at 24 h

Need solubility at 24 h, item C=Cc1cc(C(=O)Nc2ccc(C(=N)N)cc2)c(-c2ccc(C(=O)NCC3CC3)nc2C(=O)O)cc1OC 25.9 mg/mL

====

test: Phase 1 Part 2, multiple ascending dose pharmacokinetics (7 days, q8h); assay type: in vivo, human; settings: human, plasma, oral, 400 mg, Day 1, 400 mg q 8 h, GM; read-out: AUC0-8
measurement.kind: AUC(0-t)
Respond with a number, then the unit of measure.

Which measured AUC(0-t) value corresponds to C=Cc1cc(C(=O)Nc2ccc(C(=N)N)cc2)c(-c2ccc(C(=O)NCC3CC3)nc2C(=O)O)cc1OC [Example 1] ? 421 ng·h/mL

====

assay: Phase 1 Part 1, single ascending oral dose pharmacokinetics and food effect; type: in vivo, human; settings: human, plasma, po, 250 mg, 250 mg single oral dose, fasting; GM; read-out: t1/2 (converted)
measurement.kind: half-life (h)
Numbers only; they are read as h.

// returns reported half-life for input C=Cc1cc(C(=O)Nc2ccc(C(=N)N)cc2)c(-c2ccc(C(=O)NCC3CC3)nc2C(=O)O)cc1OC 6.5

====

test: Phase 1 Part 2, multiple ascending dose pharmacokinetics (7 days, q8h); type: in vivo, human; settings: human, plasma, oral, 800 mg, Day 1, 800 mg q 8 h, Median
measurement.kind: Cmax
Reply with the number, then its unit.

Item under review: C=Cc1cc(C(=O)Nc2ccc(C(=N)N)cc2)c(-c2ccc(C(=O)NCC3CC3)nc2C(=O)O)cc1OC [Example 1] . Reported Cmax? 153 ng/mL

====

test: Aqueous solubility assay in buffer and simulated gastric/intestinal fluids; details: solubility, aqueous/physiological fluids
measurement.kind: solubility at 24 h (µg/mL)
The answer is to be given in µg/mL; state only the numeric part.

Data request, read-out solubility at 24 h, for C=Cc1cc(C(=O)Nc2ccc(C(=N)N)cc2)c(-c2ccc(C(=O)NCC3CC3)nc2C(=O)O)cc1OC 100

====

assay: Phase 1 Part 2, multiple ascending dose pharmacokinetics (7 days, q8h); type: in vivo, human; conditions: human, plasma, oral, 200 mg, Day 1, 200 mg q 8 h, GM
measurement.kind: Cmax (µg/mL)
I only need the number, in µg/mL, no unit after it.

Give the measured Cmax of C=Cc1cc(C(=O)Nc2ccc(C(=N)N)cc2)c(-c2ccc(C(=O)NCC3CC3)nc2C(=O)O)cc1OC . 0.072

====

test: Absorption enhancement studies in the rat, intragastric dosing, plasma concentration; conditions: rat, in vivo, 5 mg/Kg, Plasma concentration, 0 min, intragastric 5 mg/Kg, aqueous dosing solution, individual rats 1-4
measurement.kind: concentration at 0 min (ng/mL)
Return type: number; implicit unit ng/mL.

Report concentration at 0 min for C=Cc1cc(C(=O)Nc2ccc(C(=N)N)cc2)c(-c2ccc(C(=O)NCC3CC3)nc2C(=O)O)cc1OC please. 0

====

assay: Phase 1 Part 1, single ascending oral dose pharmacokinetics and food effect; type: in vivo, human; settings: human, plasma, po, 50 mg, 50 mg single oral dose, fasting; median
measurement.kind: Tmax (h)
Express it in h; write the number only.

Dear colleague, I am looking for the recorded Tmax of the following compound: C=Cc1cc(C(=O)Nc2ccc(C(=N)N)cc2)c(-c2ccc(C(=O)NCC3CC3)nc2C(=O)O)cc1OC 1

====

test: Phase 1 Part 1, single ascending oral dose pharmacokinetics and food effect; format: in vivo, human; settings: human, plasma, po, 1000 mg, 1000 mg single oral dose, fasting; GM, n = 5
measurement.kind: AUC(0-inf) (ng·h/mL)
Respond with the bare value in ng·h/mL.

Which measured AUC(0-inf) value corresponds to C=Cc1cc(C(=O)Nc2ccc(C(=N)N)cc2)c(-c2ccc(C(=O)NCC3CC3)nc2C(=O)O)cc1OC [Example 1] ? 983

====

assay: Phase 1 Part 2, multiple ascending dose pharmacokinetics (7 days, q8h); format: in vivo, human; details: human, plasma, oral, 400 mg, Day 7, 400 mg q 8 h, Median
measurement.kind: AUC (ng·h/mL)
Note: unit ng·h/mL is implicit; provide only the numeric part.

AUC lookup needed for C=Cc1cc(C(=O)Nc2ccc(C(=N)N)cc2)c(-c2ccc(C(=O)NCC3CC3)nc2C(=O)O)cc1OC , thanks. 463
